B1: WSB1 (parent)
chain: FSHDGLHVASLADDKMVRFWRIDE

- Variants of: B1
- TEST_DESCRIPTION: protein stability index of a GFP-peptide fusion (GPS, HEK-293T) (PSI 1-6); higher = more stable;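 also: lentivirally expressed fusions sorted by FACS into six bins by GFP to DsRed ratio, PSI derived from sequencing read proportions per bin multiplied by bin number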
- CONDITION: c terminus: a fixed tail appended
Short version: protein stability index at least 3 is yes, less is no.

{"MUTANT_LABEL": "E24H", "ASSIGNED_LABEL": "no"}
{"MUTANT_LABEL": "D13H", "ASSIGNED_LABEL": "yes"}
{"MUTANT_LABEL": "E24T", "ASSIGNED_LABEL": "no"}
{"MUTANT_LABEL": "A9T", "ASSIGNED_LABEL": "no"}
{"MUTANT_LABEL": "D14L", "ASSIGNED_LABEL": "no"}
{"MUTANT_LABEL": "I22G", "ASSIGNED_LABEL": "yes"}
